Where do the numbers come from? From paper PMC10931833.

- systemTested: BSA (Bos taurus)
- Construct: purchased Millipore Sigma-Aldrich
- Sequence (P02769 25-607): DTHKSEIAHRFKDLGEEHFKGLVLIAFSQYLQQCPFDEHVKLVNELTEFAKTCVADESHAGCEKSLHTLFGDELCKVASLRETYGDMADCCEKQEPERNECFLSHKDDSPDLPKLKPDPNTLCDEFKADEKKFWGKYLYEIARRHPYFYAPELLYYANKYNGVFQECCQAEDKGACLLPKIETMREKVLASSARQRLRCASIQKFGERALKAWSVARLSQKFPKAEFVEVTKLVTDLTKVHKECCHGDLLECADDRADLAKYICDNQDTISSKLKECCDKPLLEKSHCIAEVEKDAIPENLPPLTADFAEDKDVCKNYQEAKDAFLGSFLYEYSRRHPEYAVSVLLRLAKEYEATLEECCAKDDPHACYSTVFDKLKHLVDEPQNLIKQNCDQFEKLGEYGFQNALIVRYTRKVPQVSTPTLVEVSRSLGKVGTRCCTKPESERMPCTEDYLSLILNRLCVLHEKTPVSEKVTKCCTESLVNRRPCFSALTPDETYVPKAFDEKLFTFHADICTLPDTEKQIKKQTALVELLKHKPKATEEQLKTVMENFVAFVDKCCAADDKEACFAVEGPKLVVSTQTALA
- testProtocol: Far-UV CD secondary structure of BSA (CONTIN-LL deconvolution)
- Assay type: physicochemical, bovine
- conditionsUsed: 1.0 mg/mL BSA, 90 mM component, 25 °C
Each entry below carries its reported Distorted Alpha Helix.
readoutType: Distorted Alpha Helix

[
  {
    "compound": "C[N+](C)(C)CCO.C[N+](C)(C)CCO.O=P([O-])(O)O.O=P([O-])(O)O [[N1112(OH)][H2PO4]]",
    "systemTested": "BSA (Bos taurus)",
    "measured": 0.171
  },
  {
    "compound": "CCn1cc[n+](C)c1.O=S(=O)([O-])C(F)(F)C(F)(F)C(F)(F)C(F)(F)F",
    "systemTested": "BSA (Bos taurus)",
    "measured": 0.207
  },
  {
    "compound": "OC[C@H]1O[C@@](CO)(O[C@H]2O[C@H](CO)[C@@H](O)[C@H](O)[C@H]2O)[C@@H](O)[C@@H]1O",
    "systemTested": "BSA (Bos taurus)",
    "measured": 0.211
  },
  {
    "compound": "C[N+](C)(C)CCO.O=S(=O)([O-])C(F)(F)C(F)(F)C(F)(F)C(F)(F)F [[N1112(OH)][C4F9SO3]]",
    "systemTested": "BSA (Bos taurus)",
    "measured": 0.199
  },
  {
    "compound": "CCCCn1cc[n+](C)c1.O=S(=O)([O-])C(F)(F)F [[C4C1Im][CF3SO3]]",
    "systemTested": "BSA (Bos taurus)",
    "measured": 0.202
  }
]
